Test system: Hep3B2 (FGFR3/4+++)
test.name: In vitro growth inhibition of Hep3B2 tumor cells (MTT/CCK8)
Format: cell-based, Human
stated.conditions: Homo sapiens, Hep3B, read-out: IC50 Hep3B2 (FGFR3/4+++)
Text: Tumor cell lines are an effective model for studying in vitro tumor growth inhibition. In the present invention, a representative tumor cell line was selected to determine the cell growth inhibition activity of the present compound. All cell lines used were from ATCC, DSMZ, and cell banks of the Chinese Academy of Sciences. […] Adherent cells were digested with 0.25% trypsin-EDTA (Gibco). […] The supernatant was discarded and the cells were counted. […]
pIC50: −log10 of the molar value.
readout.kind: pIC50

> print(dat)
                                   compound     target.or.system  test.value
1  CNC(=O)c1cc2c(Oc3ccc(NC(=O)n4nc(C(C)(C)C)cc4N)c(Cl)c3)ccnc2cc1OC [Compound 72]  Hep3B2 (FGFR3/4+++)        6.80

* * *

Tested on: Kasumi-1 (KIT N822K)
test.name: In vitro growth inhibition of Kasumi-1 tumor cells (MTT/CCK8)
Assay type: cell-based, Human
stated.conditions: Homo sapiens, Kasumi 1; in vitro growth inhibition (or induction of apoptosis), cells cultured 3 to 5 days, MTT (CCK8); read-out: IC50 Kasumi-1 (KIT N822K)
pIC50: −log10 of the molar value.
readout.kind: pIC50

> print(dat)
                                    molecule  qualifier  test.value
 1  COCCOc1cc2nccc(Oc3ccc(NC(=O)Nc4cc(C(C)(C)C)n[nH]4)c(Cl)c3)c2cc1NC(C)=O [Compound 66]          =        8.95
 2  COCCNC(=O)c1cc2c(Oc3ccc(NC(=O)Nc4cc(C(C)(C)C)on4)c(Cl)c3)ccnc2cc1OC [Compound 17]          =        7.15
 3  COc1cc2nccc(Oc3ccc(NC(=O)Nc4cc(C(C)(C)C)on4)c(Cl)c3)c2cc1C#N [Compound 19]          =        6.88
 4  CCN1CCN(c2ccc(Nc3cc(NC(=O)Nc4ccc(Oc5ccnc6cc(OC)c(C(N)=O)cc56)c(Cl)c4Cl)ncn3)cc2)CC1 [Compound 71]          <        6.00
 5  CC(C)(C)c1cc(NC(=O)Nc2ccc(Oc3ccnc4c(F)cccc34)cc2Cl)no1 [Compound 113]          <        6.00
 6  CN(C)CCOc1cc2nccc(Oc3ccc(NC(=O)Nc4cc(C(C)(C)C)n[nH]4)c(Cl)c3)c2cc1C(N)=O [Compound 83]          =        6.59
 7  COc1cc2nccc(Oc3ccc(NC(=O)Nc4cc(C(C)(C)C)n[nH]4)c(Cl)c3)c2cc1NC(C)=O [Compound 63]          =        8.06
 8  COCCOc1cc2nccc(Oc3ccc(NC(=O)Nc4cc(C(C)(C)C)nn4C)c(Cl)c3)c2cc1C(N)=O [Compound 44]          =        8.10
 9  COc1cc2nccc(Oc3ccc(NC(=O)Nc4cc(C(C)(C)C)on4)c(Cl)c3)c2cc1[N+](=O)[O-] [Compound 18]          =        7.23
10  C=CC(=O)n1nc(C(C)(C)C)cc1NC(=O)Nc1ccc(Oc2ccnc3cc(OC)c(C(N)=O)cc23)cc1Cl [Compound 28]          =        7.49
11  COc1cc2nccc(Oc3ccc(NC(=O)Nc4cc(C(C)(C)C)n[nH]4)cc3C(C)C)c2cc1C(N)=O [Compound 107]          <        6.00
12  CNC(=O)c1cc2c(Oc3ccc(NC(=O)Nc4cc(C(C)(C)C)n[nH]4)c(Cl)c3Cl)ccnc2cc1OC [Compound 56]          =        8.97
13  CC(C)(C)c1cc(NC(=O)Nc2ccc(Oc3ccnc4cc(O)c(C(N)=O)cc34)c(Cl)c2Cl)[nH]n1 [Compound 92]          =        6.74
14  COc1cc2nccc(Oc3ccc(NC(=O)Nc4cc(C(C)(C)C)n[nH]4)c(C(F)(F)F)c3)c2cc1C(N)=O [Compound 33]          =        7.33
15  COc1cc2nccc(Nc3ccc(NC(=O)Nc4cc(C(C)(C)C)on4)cc3C)c2cc1C(N)=O [Compound 99]          =        6.45

* * *

Test system: H1581 (FGFR1 amp)
test.name: In vitro growth inhibition of H1581 tumor cells (MTT/CCK8)
Format: cell-based, Human
stated.conditions: Homo sapiens, NCI-H1581; in vitro growth inhibition (or induction of apoptosis), cells cultured 3 to 5 days, MTT (CCK8); read-out: IC50 H1581 (FGFR1 amp)
pIC50: −log10 of the molar value.
readout.kind: pIC50

> print(dat)
                                    compound  qualifier  test.value
 1  CCOc1cc2ncc(C#N)c(Oc3ccc(NC(=O)Nc4cc(C(C)(C)C)n[nH]4)c(Cl)c3)c2cc1NC(C)=O [Compound 68]          <        6.00
 2  COc1cc2nccc(Oc3ccc(NC(=O)Nc4cc(C(C)(C)C)n[nH]4)c(C)c3)c2cc1C(N)=O [Compound 34]          =        7.24
 3  COCCCOc1cc2nccc(Oc3ccc(NC(=O)Nc4cc(C(C)(C)C)n[nH]4)c(Cl)c3)c2cc1NC(C)=O [Compound 129]          =        8.32
 4  COc1cc2nccc(Oc3ccc(NC(=O)Nc4cc(C(C)C)n[nH]4)c(Cl)c3)c2cc1C(N)=O [Compound 40]          =        6.90
 5  CNC(=O)c1cc2c(Oc3ccc(NC(=O)Nc4cc(C(C)(C)C)nn4C4CCCC4)c(Cl)c3)ccnc2cc1OC [Compound 48]          =        7.93
 6  COc1cc2nccc(Nc3ccc(NC(=O)Nc4cc(C(C)(C)C)n[nH]4)cc3C)c2cc1C(N)=O [Compound 98]          =        6.36
 7  COc1cc2nccc(Oc3ccc(NC(=O)Nc4cc(C(C)(C)C)on4)c(Cl)c3)c2cc1[N+](=O)[O-] [Compound 18]          =        6.65
 8  CCN1CCN(c2ccc(Nc3cc(NC(=O)Nc4ccc(Oc5ccnc6cc(OC)c(C(N)=O)cc56)c(Cl)c4Cl)ncn3)cc2)CC1 [Compound 71]          <        6.00
 9  COc1cc2nccc(Oc3ccc(NC(=O)Nc4cc(C(C)(C)C)n[nH]4)c(Cl)c3)c2cc1C(N)=O [Compound 25]          =        8.01
10  CN(C)CCOc1cc2nccc(Oc3ccc(NC(=O)Nc4cc(C(C)(C)C)n[nH]4)c(Cl)c3)c2cc1C(N)=O [Compound 83]          =        7.03
11  COCCOc1cc2nccc(Oc3ccc(NC(=O)Nc4cc(C(C)(C)C)nn4CCN(C)C)cc3)c2cc1NC(C)=O [Compound 119]          =        7.10
12  COc1cc2nccc(Oc3ccc(NC(=O)Nc4cc(C(C)(C)C)nn4CCN4CCOCC4)c(Cl)c3)c2cc1C(N)=O [Compound 31]          =        7.63
13  COc1cc2nccc(Nc3ccc(NC(=O)Nc4cc(C(C)(C)C)n[nH]4)cc3Cl)c2cc1C(N)=O [Compound 97]          =        6.60
14  COc1cc2nccc(Oc3ccc(NC(=O)Nc4cc(C(C)(C)C)n[nH]4)c(Cl)c3)c2cc1NC(C)=O [Compound 63]          =        8.37
15  COc1cc2nccc(Oc3ccc(NC(=O)Nc4cc(C(C)(C)C)nn4C)c(Cl)c3)c2cc1C(N)=O [Compound 26]          =        8.01
16  COCCOc1cc2nccc(Oc3ccc(NC(=O)Nc4cc(C(C)(C)C)n[nH]4)c(Cl)c3)c2cc1C(N)=O [Compound 42]          =        8.04
17  COc1cc2nccc(Oc3ccc(NC(=O)N4CCc5ccsc5C4)c(Cl)c3)c2cc1C(N)=O [Compound 74]          <        6.00
18  COc1cc2nccc(Oc3ccc(NC(=O)Nc4cc(C(C)(C)C)nn4C4CCCC4)c(Cl)c3)c2cc1C(N)=O [Compound 30]          =        7.81
19  C=CC(=O)N1CCC(NC(=O)Nc2ccc(Oc3ccnc4cc(OC)c(C(N)=O)cc34)cc2Cl)C1 (stereo not shown) [Compound 70]          <        6.00
20  COCCNC(=O)c1cc2c(Oc3ccc(NC(=O)Nc4cc(C(C)(C)C)on4)c(Cl)c3)ccnc2cc1OC [Compound 17]          =        7.50
21  CNC(=O)c1cc2c(Oc3ccc(NC(=O)N4CCCC4)c(Cl)c3Cl)ccnc2cc1OCCOC [Compound 76]          <        6.00
22  CNC(=O)c1cc2c(Oc3ccc(NC(=O)Nc4cc(C(C)(C)C)no4)c(Cl)c3)ccnc2cc1OC [Compound 15]          =        8.97
23  CNC(=O)c1cc2c(Oc3ccc(NC(=O)Nc4cc(C(C)(C)C)n[nH]4)c(Cl)c3Cl)ccnc2cc1OC [Compound 56]          =        8.44
24  COCCOc1cc2nccc(Oc3ccc(NC(=O)Nc4cc(C(C)(C)C)n[nH]4)cc3)c2cc1NC(C)=O [Compound 116]          =        8.05
25  CC(C)(C)c1cc(NC(=O)Nc2ccc(Oc3ccnc4cc(OCCN5CCCCC5)c(C(N)=O)cc34)c(Cl)c2Cl)[nH]n1 [Compound 96]          =        7.42
26  CCC(=O)n1nc(C(C)(C)C)cc1NC(=O)Nc1ccc(Oc2ccnc3cc(OC)c(C(N)=O)cc23)cc1Cl [Compound 29]          =        7.58
27  COc1cc2nccc(Oc3ccc(NC(=O)Nc4cc(C(C)(C)C)on4)c(Br)c3)c2cc1C(N)=O [Compound 3]          =        8.16
28  CC(=O)Nc1cc2c(Oc3ccc(NC(=O)Nc4cc(C(C)(C)C)n[nH]4)c(Cl)c3)ccnc2cc1OCCCN1CCN(C)CC1 [Compound 130]          =        8.95
